// provenance: patent US20230263822A1

So I've got a bunch of substances here, and I need their platelet count values.
assay: Hematology assays in cynomolgus monkeys (Example 46)
Type: in vivo
condition: Day 45
Strand notation (5' to 3'): a small letter for the sugar, then the base; units joined by * are phosphorothioate-linked, units joined directly phosphodiester-linked; [ ] holds rarer units or linkages, { } end groups; capitals alone tell only the bases. e = 2'-O-(2-methoxyethyl) (MOE); [5mC] = 5-methylcytosine; d = 2'-deoxy (DNA)

Answer for every listed entry: what is its platelet count? The entries follow.
1. ISIS 449707: 3-8-3, 4-8-4, 2-10-2, 3-10-3 or 4-10-4 MOE microwalk gapmer (Table 46) (antisense e[5mC]*eA*e[5mC]*eA*dG*dT*dT*dT*d[5mC]*dT*dG*dG*e[5mC]*eA*eG*eG)
2. ISIS 449710: 3-8-3, 4-8-4, 2-10-2, 3-10-3 or 4-10-4 MOE microwalk gapmer (Table 46) (antisense e[5mC]*eA*e[5mC]*dA*dG*dT*dT*dT*d[5mC]*dT*dG*dG*d[5mC]*eA*eG*eG)
3. ISIS 445522: 5-8-5 or 6-8-6 MOE microwalk gapmer (Table 44) (antisense eG*e[5mC]*eA*e[5mC]*eA*dG*dT*dT*dT*d[5mC]*dT*dG*dG*e[5mC]*eA*eG*eG*e[5mC])

1: 424 ×100/μL; 2: 313 ×100/μL; 3: 403 ×100/μL

Answer for every listed entry: what is its platelet count? The entries follow.
1. ISIS 445531: 5-8-5 or 6-8-6 MOE microwalk gapmer (Table 44) (antisense eG*eG*e[5mC]*eA*eT*dT*dG*dG*dT*dG*d[5mC]*dA*d[5mC]*eA*eG*eT*eT*eT)
2. ISIS 449709: 3-8-3, 4-8-4, 2-10-2, 3-10-3 or 4-10-4 MOE microwalk gapmer (Table 46) (antisense eG*e[5mC]*eA*e[5mC]*dA*dG*dT*dT*dT*d[5mC]*dT*dG*dG*d[5mC]*eA*eG*eG*e[5mC])

1: 345 ×100/μL; 2: 418 ×100/μL
